# tgt: HDAC6 (Homo sapiens)
# Sequence (Q9UBN7 whole entry): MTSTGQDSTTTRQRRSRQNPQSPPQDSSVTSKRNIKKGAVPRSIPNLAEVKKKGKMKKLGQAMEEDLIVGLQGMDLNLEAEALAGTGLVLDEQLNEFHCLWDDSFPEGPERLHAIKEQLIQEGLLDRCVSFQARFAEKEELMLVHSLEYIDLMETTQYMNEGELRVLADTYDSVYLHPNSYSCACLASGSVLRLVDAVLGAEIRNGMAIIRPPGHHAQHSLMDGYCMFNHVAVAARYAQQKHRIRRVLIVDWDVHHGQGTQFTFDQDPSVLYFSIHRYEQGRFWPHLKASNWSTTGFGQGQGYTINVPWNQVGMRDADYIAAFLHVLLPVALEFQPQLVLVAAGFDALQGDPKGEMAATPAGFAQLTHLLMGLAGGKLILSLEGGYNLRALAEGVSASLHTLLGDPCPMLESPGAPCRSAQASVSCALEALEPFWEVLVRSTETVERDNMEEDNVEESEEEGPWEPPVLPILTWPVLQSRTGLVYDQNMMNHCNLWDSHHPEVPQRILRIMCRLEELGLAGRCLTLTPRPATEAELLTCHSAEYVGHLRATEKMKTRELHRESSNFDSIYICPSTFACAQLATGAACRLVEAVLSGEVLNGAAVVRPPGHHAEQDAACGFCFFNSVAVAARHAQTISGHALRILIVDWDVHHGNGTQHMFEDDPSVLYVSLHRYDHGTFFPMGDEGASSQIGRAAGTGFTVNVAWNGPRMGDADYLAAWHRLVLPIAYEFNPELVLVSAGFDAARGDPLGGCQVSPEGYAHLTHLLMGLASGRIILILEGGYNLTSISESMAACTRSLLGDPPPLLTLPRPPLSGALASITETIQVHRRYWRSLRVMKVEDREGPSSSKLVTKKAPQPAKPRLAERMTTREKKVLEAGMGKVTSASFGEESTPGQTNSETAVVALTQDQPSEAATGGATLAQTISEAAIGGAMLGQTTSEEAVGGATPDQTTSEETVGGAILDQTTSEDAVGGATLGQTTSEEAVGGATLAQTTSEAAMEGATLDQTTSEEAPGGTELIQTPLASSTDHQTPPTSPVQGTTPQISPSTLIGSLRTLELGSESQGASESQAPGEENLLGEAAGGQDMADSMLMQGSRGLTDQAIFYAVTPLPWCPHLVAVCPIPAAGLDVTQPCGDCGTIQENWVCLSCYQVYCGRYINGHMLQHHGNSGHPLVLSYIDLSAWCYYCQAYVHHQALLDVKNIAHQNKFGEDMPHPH
# assay-notes: Human HDAC enzyme inhibitor Fluor-de-Lys assay, HDAC6
# Type: biochemical

{"columns": ["compound", "unit-abbrev", "sign-qualifier", "IC50"],
 "data": [
  ["CCC(=O)CCCCC[C@H](NC(=O)[C@H]1CC12CCN(C)CC2)c1ncc(-c2ccc3nc(N(C)C)ccc3c2)[nH]1 [Compound 66]", "µM", ">", 0.45],
  ["CCC(=O)CCCCC[C@H](NC(=O)[C@H]1CC[C@]2(CC1)OC(=O)c1cccnc12)c1ncc(-c2ccc3nc(C4CC4)ccc3c2)o1 [Compound 123]", "µM", ">", 15],
  ["CCC(=O)CCCCC[C@H](NC(=O)[C@H]1CC12CCN(C)CC2)c1ncc(-c2ccc3nc(C)cc(Cl)c3c2)[nH]1 [Compound 174]", "µM", "=", 0.951],
  ["CCN1CCC2(CC1)C[C@@H]2C(=O)N[C@@H](CCCCCC(=O)CC1CC1)c1ncc(-c2ccc(F)cc2)[nH]1 [Compound 201]", "µM", "=", 35.8],
  ["CCC(=O)CCCCC[C@H](NC(=O)C1=NOC2(CCN(C)CC2)C1)c1ncc(-c2cc3ccc(=O)n(C)c3cc2OC)o1 [Compound 193]", "µM", ">", 0.9],
  ["CCC(=O)CCCCC[C@H](NC(=O)C1CC12CCN(C)C(C)(C)C2)c1ncc(-c2ccc3nc(C)ccc3c2)[nH]1 (single isomer, unassigned) [Compound 132]", "µM", "=", 3.68]
]}
